Target: DEN1-NS1 (Nauru/Western Pacific/1974) (Dengue virus 1)
Sequence: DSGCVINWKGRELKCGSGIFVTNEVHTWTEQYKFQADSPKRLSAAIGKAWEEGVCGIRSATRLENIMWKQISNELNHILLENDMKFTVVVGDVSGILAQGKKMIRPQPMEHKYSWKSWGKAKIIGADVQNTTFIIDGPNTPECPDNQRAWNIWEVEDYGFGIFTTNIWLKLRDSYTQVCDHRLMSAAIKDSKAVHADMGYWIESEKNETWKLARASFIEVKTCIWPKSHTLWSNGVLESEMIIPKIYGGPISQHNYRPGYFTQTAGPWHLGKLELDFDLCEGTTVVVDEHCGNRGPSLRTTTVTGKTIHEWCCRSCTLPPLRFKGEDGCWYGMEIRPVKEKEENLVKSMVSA
Experiment: SPR
Conditions: Ds unnatural base at both n; biotin-dT in 3' mini-hairpin CGCG(L)AGCG
readout label: pKd
Units for pKd: none; it is -log10 of a concentration expressed in mol/L.

Memo: CCCCAGACGGACTGGTGTNCTCGGNATGGCCGTCTGGGGCGCGTAGCG [D1-1-48h (AptD1)] , reported pKd: 9.74

====

Molecular target: DEN2-NS1 (Thailand/16681/84) (Dengue virus 2)
Sequence: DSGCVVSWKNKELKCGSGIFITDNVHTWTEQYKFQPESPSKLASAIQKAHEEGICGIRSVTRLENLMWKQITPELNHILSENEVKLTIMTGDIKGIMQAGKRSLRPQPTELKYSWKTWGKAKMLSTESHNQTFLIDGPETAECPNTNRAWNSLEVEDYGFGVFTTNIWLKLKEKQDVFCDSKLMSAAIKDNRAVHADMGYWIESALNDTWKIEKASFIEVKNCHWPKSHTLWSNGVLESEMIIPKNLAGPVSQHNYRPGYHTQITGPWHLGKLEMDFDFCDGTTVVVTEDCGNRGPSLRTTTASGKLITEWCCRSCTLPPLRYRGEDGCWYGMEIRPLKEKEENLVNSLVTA
Assay: SPR
Settings: Ds at positions 11 and 23, diol-Pa at position 35; biotin-dT in 3' mini-hairpin
readout label: pKd
Units for pKd: none; it is -log10 of a concentration expressed in mol/L.

Memo: GGCTGGTCCGNCTGGGAACAAGNGGCGGGAGGGANGGGTGTGGGTGCGACAAGCGGACCAGCCCGCGTAGCG [D2-1d-72h (AptD2)] , reported pKd: 9.98

====

Biological target: SIN DEN1-NS1 (Singaporean variant, 96.3% homology) (Dengue virus 1)
Assay: SPR
Details: Ds at both x; biotin-dT in 3' mini-hairpin; 25 C, 150 mM NaCl, 1 mM MgCl2
readout label: Kd
Write the quantity with the unit trailing the number.

Memo: GCACTCCATGATATGGTCTACTGAGCGAGACGATGCTGCTAAANTACGCCGTGGTNACGAAGACAGACAAGCGGAGTGTCGCGTAGCG [19D1F1-3] , reported Kd: 0.027 nM

====

Target: DEN4-NS1 (Dominica/814669/1981) (Dengue virus 4)
Sequence: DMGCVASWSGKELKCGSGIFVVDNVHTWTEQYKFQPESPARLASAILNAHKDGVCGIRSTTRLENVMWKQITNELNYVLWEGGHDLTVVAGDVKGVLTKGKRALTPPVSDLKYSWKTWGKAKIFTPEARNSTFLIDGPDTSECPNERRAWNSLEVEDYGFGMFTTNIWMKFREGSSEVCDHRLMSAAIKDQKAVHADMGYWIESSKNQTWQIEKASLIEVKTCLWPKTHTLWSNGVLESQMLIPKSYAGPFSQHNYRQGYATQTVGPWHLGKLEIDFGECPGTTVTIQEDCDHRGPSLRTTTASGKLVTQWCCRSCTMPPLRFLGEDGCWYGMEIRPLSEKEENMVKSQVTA
Test: SPR
Details: Ds at both x; 5' biotin-dT
readout label: pKd
Units for pKd: none; it is -log10 of a concentration expressed in mol/L.

Memo: TGATATGGTCTACTGTCTCAACGGTTGTCAAACGGNTATCACGGCNACACACCTGCGGACAAGCGGAGTAGTTAGACC [D4-1-78] , reported pKd: 10.21

====

Molecular target: DEN2-NS1 (Thailand/16681/84) (Dengue virus 2) (UniProt P29990)
Sequence: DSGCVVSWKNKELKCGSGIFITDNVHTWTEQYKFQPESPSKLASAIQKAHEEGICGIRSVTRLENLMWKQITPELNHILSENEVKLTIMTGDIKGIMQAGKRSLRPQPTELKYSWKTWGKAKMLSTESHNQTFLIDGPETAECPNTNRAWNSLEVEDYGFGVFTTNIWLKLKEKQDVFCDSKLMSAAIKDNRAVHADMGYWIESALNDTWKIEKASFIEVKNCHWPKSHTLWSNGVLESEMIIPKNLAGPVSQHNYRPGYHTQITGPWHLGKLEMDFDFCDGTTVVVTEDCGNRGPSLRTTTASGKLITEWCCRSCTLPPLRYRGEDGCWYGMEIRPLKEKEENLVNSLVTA
Assay: SPR
Conditions: two Ds and one diol-Pa; biotin-dT in 3' mini-hairpin
readout label: Kd (nM)
Kindly provide the numeric value in nM only, without the unit symbol.

Memo: GACGGTCTACTGGTCCGNCTGGGAACAAGNGGCGGGAGGGANGGGTGTGGGTGCGACAAGCGGAGTAGTTAGACCGTCCGCGTAGCG [D2-1d-87h] , reported Kd: 0.105

====

Biological target: DEN2-NS1 (Thailand/16681/84) (Dengue virus 2) (UniProt P29990)
Sequence: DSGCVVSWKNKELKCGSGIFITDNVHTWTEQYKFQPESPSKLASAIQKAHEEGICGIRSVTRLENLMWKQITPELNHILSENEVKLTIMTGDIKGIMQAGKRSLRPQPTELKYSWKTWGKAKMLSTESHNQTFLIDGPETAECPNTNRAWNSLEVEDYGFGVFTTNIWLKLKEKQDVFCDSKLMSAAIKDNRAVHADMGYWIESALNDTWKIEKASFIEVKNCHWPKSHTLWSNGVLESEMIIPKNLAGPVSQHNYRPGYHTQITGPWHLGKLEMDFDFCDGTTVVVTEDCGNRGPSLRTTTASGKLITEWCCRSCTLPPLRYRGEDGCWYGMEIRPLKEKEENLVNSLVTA
Assay: SPR
Settings: two Ds and one diol-Px; 5' biotin
readout label: Kd

Memo: TTTTCGCACTCCATGATATGGTCTACTGGTCCGNCTGGGAACAAGNGGCGGGAGGGANGGGTGTGGGTGCGACAAGCGGAGTAGTTAGACCGTCAAA [D2-1y-96] , reported Kd: 0.041 nM

====

Target: DEN4-NS1 (Dominica/814669/1981) (Dengue virus 4)
Sequence: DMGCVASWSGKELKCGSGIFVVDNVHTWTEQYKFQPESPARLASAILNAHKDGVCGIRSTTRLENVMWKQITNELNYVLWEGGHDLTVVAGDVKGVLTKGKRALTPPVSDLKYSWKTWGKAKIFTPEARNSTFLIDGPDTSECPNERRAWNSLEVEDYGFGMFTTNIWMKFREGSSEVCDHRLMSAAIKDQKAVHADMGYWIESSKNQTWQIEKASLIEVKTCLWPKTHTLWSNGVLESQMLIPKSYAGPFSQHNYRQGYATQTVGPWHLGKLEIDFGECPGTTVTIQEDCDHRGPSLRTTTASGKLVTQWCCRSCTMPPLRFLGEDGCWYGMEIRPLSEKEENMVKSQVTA
Assay: SPR
Conditions: Ds at x (three); 5' biotin-dT
readout label: Kd (nM)
Kindly provide the numeric value in nM only, without the unit symbol.

Memo: TGATATGGTCTACTGTGGCGCGAGGGAATCNACGCNTATCAAATANAAACAGCTAATGACAAGCGGAGTAGTTAGACC [D4-3-78] , reported Kd: 0.034

====

Molecular target: DEN3-NS1 (Sri Lanka D3/H/IMTSSA-SRI/2000/1266) (Dengue virus 3)
Sequence: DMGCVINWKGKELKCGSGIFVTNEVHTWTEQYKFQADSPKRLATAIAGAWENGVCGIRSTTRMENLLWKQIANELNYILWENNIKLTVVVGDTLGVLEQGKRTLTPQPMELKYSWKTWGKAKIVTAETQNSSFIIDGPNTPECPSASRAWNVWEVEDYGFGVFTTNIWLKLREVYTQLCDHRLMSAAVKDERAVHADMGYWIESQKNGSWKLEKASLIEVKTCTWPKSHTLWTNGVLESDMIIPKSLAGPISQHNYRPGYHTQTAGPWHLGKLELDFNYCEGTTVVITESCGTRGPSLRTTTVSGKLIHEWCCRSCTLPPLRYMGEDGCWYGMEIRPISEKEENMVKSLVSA
Assay: SPR
Details: Ds at both n; biotin-dT in 3' mini-hairpin
readout label: pKd
Units for pKd: none; it is -log10 of a concentration expressed in mol/L.

Memo: CCGCTTGTCATCTANCCTGGCCNTGTGGTACTGTAACGGCTGACAAGCGGCGCGTAGCG [D3-2-59h (AptD3)] , reported pKd: 10.24
